assay: P. berghei load reduction in hepatocytes – cell-based, HepG2, luciferase luminescence, HepG2 viability, primary screen (AID 624349);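 also: 100% = mean of DMSO negative control wells on the same plate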; conditions: P. berghei liver stage in HepG2, luciferase luminescence, concentration not given here; hits give low values
propertyName: parasite load remaining (%)
Numbers only here, please. The scale is %.

Solved entries (count: 4):
{"compound": "CO[C@@]1(NC(=O)[C@H](C(=O)O)c2ccc(O)cc2)C(=O)N2C(C(=O)O)=C(CSc3nnnn3C)CO[C@@H]21", "outputUnit": "%", "parasite load remaining": 81.8}
{"compound": "Nc1c2ccccc2nc2c(O)cccc12", "outputUnit": "%", "parasite load remaining": 80.8}
{"compound": "CC(=O)NC1[C@@H](O)OC(CO)[C@@H](O)[C@H]1O[C@H](C)C(=O)O (stereo not given in full)", "outputUnit": "%", "parasite load remaining": 82.1}
{"compound": "CCCCn1c(=O)c2c(ncn2CC(C)=O)n(CCCC)c1=O", "outputUnit": "%", "parasite load remaining": 49}

# ---- query compound ----
(Q) Using the record for O=C(Nc1ccc(-c2cn[nH]c2)cc1)C1COc2ccccc2O1 (stereo not given) , report its parasite load remaining.
(A) 48.6
